// provenance: the NIST ThermoML archive (doi:10.1016/j.jct.2014.03.001)

experiment: mn = molality of the nth substance listed, in mol/kg; conditions: 308.15 K; 84.51 kPa; Liquid; Frequency=3 MHz; Sing-around technique in a fixed-path interferometer; m1 = 0.035
Measured speed of sound of individual entries
Your answer is read as m/s, so omit the unit and give the number.

Solved cases below.
>  <compound>
O=[N+]([O-])[O-].[Na+] [sodium nitrate] + O

>  <unit annotation>
m/s

>  <speed of sound>
1521.1

$$$$
>  <compound>
O=C([O-])[O-].[Na+].[Na+] [sodium carbonate] + O

>  <unit annotation>
m/s

>  <speed of sound>
1525.7

$$$$
>  <compound>
[Cl-].[Na+] [sodium chloride] + O

>  <unit annotation>
m/s

>  <speed of sound>
1521.9

$$$$

Which measured speed of sound value corresponds to [Cl][Fe]([Cl])[Cl] [ferric chloride] + O ?
1523.5

Entry to check: [Cl-].[K+] [potassium chloride] + O
1521.5

Entry to check: O=S(=O)([O-])[O-].[Na+].[Na+] [sodium sulfate] + O
1525.3

Entry to check: Cl.N [ammonium chloride (NH4Cl)] + O
1521.3

Entry to check: [Cl-].[Cl-].[Mg+2] [magnesium chloride] + O
1524

Entry to check: O=C([O-])CC(O)(CC(=O)[O-])C(=O)[O-].[Na+].[Na+].[Na+] [trisodium citrate] + O
1527.1

Entry to check: C[N+](C)(C)C.[Cl-] [tetramethylammonium chloride] + O
1522.8
